Assay: PK of compound of Formula (Ia) after single subcutaneous dose of solution formulations in beagle dogs
Assay type: in vivo
Conditions: male, beagle, dog, plasma, sc, 12 mg/kg, male beagle dogs, single SC 12 mg/kg, 400 mg/mL solution Z (3.13% poloxamer 188), mean ± SD, n = 3; read-out: AUC0-24 h
experimental_readout: AUC(0-t)
Put down the number, then write its unit next to it.

Summary for this molecule, "CC(C)(C#Cc1ccc(-c2ccc(Cl)c3c(NS(C)(=O)=O)nn(CC(F)(F)F)c23)c([C@H](Cc2cc(F)cc(F)c2)NC(=O)Cn2nc(C(F)(F)F)c3c2C(F)(F)[C@@H]2C[C@H]32)n1)S(C)(=O)=O" : AUC(0-t) is 1.02 µM·h

* * *

Assay: PK of compound of Formula (Ia) after single subcutaneous dose of solution formulations in beagle dogs
Format: in vivo
Settings: male, beagle, dog, plasma, sc, 12 mg/kg, beagle dogs, SC 12 mg/kg, 400 mg/mL solution Y (water, PEG 300), 336 h, animals #1-#3
experimental_readout: concentration at 336 h (nM)
Numbers only, in nM.

The recorded concentration at 336 h for entry "CC(C)(C#Cc1ccc(-c2ccc(Cl)c3c(NS(C)(=O)=O)nn(CC(F)(F)F)c23)c([C@H](Cc2cc(F)cc(F)c2)NC(=O)Cn2nc(C(F)(F)F)c3c2C(F)(F)[C@@H]2C[C@H]32)n1)S(C)(=O)=O" equals 163

* * *

Assay: PK of compound of Formula (Ia) after single subcutaneous dose of solution formulations in beagle dogs
Type: in vivo
Details: male, beagle, dog, plasma, sc, 12 mg/kg, 840 h; mean, n = 3 dogs; SC 12 mg/kg; solution T, 400 mg/mL
experimental_readout: concentration at 840 h (µM)
One number for each entry, in µM.

Sure, the documented concentration at 840 h for "CC(C)(C#Cc1ccc(-c2ccc(Cl)c3c(NS(C)(=O)=O)nn(CC(F)(F)F)c23)c([C@H](Cc2cc(F)cc(F)c2)NC(=O)Cn2nc(C(F)(F)F)c3c2C(F)(F)[C@@H]2C[C@H]32)n1)S(C)(=O)=O" is 0.0908

* * *

Assay: PK of compound of Formula (Ia) after single subcutaneous dose of solution formulations in beagle dogs
Assay type: in vivo
Settings: male, beagle, dog, plasma, sc, 12 mg/kg, beagle dogs, SC 12 mg/kg, 400 mg/mL solution AA (6.25% poloxamer 188), 48.0 h, Mean n = 3
experimental_readout: concentration at 48 h (nM)
Give bare numbers, in nM.

Notebook: "CC(C)(C#Cc1ccc(-c2ccc(Cl)c3c(NS(C)(=O)=O)nn(CC(F)(F)F)c23)c([C@H](Cc2cc(F)cc(F)c2)NC(=O)Cn2nc(C(F)(F)F)c3c2C(F)(F)[C@@H]2C[C@H]32)n1)S(C)(=O)=O" , concentration at 48 h read as 148

* * *

Experiment: PK of compound of Formula (Ia) after single subcutaneous dose of solution formulations in Wistar Han rats
Assay type: in vivo
Conditions: male, Wistar Han, rat, plasma, sc, 50 mg/kg, Wistar Han rats, SC 50 mg/kg, 500 mg/mL solution X (5.00% ethanol, 1.91% poloxamer 188), 336 h, animals #1-#3
experimental_readout: concentration at 336 h (µM)
Numbers only, in µM.

"CC(C)(C#Cc1ccc(-c2ccc(Cl)c3c(NS(C)(=O)=O)nn(CC(F)(F)F)c23)c([C@H](Cc2cc(F)cc(F)c2)NC(=O)Cn2nc(C(F)(F)F)c3c2C(F)(F)[C@@H]2C[C@H]32)n1)S(C)(=O)=O" yielded concentration at 336 h of 0.269
